// data source = ChEMBL document CHEMBL1136639

Entries and their pIC50 values follow.
Target: Mu-type opioid receptor (Homo sapiens)
Sequence (P35372 whole entry): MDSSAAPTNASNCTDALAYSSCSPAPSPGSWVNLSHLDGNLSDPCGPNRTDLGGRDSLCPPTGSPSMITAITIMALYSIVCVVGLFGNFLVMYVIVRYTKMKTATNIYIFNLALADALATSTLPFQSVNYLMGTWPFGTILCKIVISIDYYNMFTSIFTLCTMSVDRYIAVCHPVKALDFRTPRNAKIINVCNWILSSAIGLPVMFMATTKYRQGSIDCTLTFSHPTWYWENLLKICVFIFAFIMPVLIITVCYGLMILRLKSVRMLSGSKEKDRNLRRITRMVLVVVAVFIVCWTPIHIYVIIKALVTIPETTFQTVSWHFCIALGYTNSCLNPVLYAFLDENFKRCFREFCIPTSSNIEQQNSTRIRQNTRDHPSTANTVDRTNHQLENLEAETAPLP
Experiment: Inhibitory activity against non-selective opiate receptor
Starred links: 1 amine or outer side, 2 acyl side, 3 side chain; linkers in the order of their positions; H or OH if unused. Non-standard residues stand in square brackets, D forms with d. Residues, ends and D or L forms follow the SMILES beside them. X1 = NCCCC[C@H](C(=O)[C@H](CO)N[*:1])C(=O)[*:2]
Interpret pIC50 as the negative base-10 log of the concentration measured in mol/L.

Previously resolved entries follow.
MOLECULE	pIC50
NC(=O)[C@@H]1CCCN1C(=O)[C@H](Cc1ccccc1)NC(=O)[C@@H]1CCCN1C(=O)[C@@H](N)Cc1ccc(O)cc1 [MORPHICEPTIN] (H-YPFP-NH2)	6.49
NCCCC[C@H](C(=O)[C@H](CO)NC(=O)[C@@H]1CCCN1C(=O)[C@@H](N)Cc1ccc(O)cc1)C(=O)N1CCC[C@H]1C(=O)N[C@@H](CC(=O)O)C(=O)O (H-YP[X1]PD-OH)	5.74

Now let's try a different one.
### Prompt Give Mu-type opioid receptor (Homo sapiens) pIC50 for the following molecule: "CC[C@H](C)[C@H](NC(=O)[C@H](Cc1ccc(O)cc1)NC(=O)[C@H](Cc1c[nH]cn1)NC(=O)[C@H](CCCN=C(N)N)NC(=O)[C@H](CC(C)C)NC(=O)[C@H](C)NC(=O)[C@@H](N)CO)C(=O)N[C@@H](CC(N)=O)C(=O)N[C@@H](CC(C)C)C(=O)N[C@H](C(=O)N[C@H](C(=O)N[C@@H](CCCN=C(N)N)C(=O)N[C@@H](CCC(N)=O)C(=O)N[C@@H](CCCN=C(N)N)C(=O)N[C@@H](Cc1ccc(O)cc1)C(=O)O)[C@@H](C)O)[C@@H](C)CC"
### Response 5.00
